molecular target: Ribosomal protein S6 kinase alpha-5 (Homo sapiens) (UniProt O75582); conditions: at 0.1 µM;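 further: mean inhibition of MSK1 reported, from a GSK PKIS inhibitor set screen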
Sequence (O75582 whole entry, looked up): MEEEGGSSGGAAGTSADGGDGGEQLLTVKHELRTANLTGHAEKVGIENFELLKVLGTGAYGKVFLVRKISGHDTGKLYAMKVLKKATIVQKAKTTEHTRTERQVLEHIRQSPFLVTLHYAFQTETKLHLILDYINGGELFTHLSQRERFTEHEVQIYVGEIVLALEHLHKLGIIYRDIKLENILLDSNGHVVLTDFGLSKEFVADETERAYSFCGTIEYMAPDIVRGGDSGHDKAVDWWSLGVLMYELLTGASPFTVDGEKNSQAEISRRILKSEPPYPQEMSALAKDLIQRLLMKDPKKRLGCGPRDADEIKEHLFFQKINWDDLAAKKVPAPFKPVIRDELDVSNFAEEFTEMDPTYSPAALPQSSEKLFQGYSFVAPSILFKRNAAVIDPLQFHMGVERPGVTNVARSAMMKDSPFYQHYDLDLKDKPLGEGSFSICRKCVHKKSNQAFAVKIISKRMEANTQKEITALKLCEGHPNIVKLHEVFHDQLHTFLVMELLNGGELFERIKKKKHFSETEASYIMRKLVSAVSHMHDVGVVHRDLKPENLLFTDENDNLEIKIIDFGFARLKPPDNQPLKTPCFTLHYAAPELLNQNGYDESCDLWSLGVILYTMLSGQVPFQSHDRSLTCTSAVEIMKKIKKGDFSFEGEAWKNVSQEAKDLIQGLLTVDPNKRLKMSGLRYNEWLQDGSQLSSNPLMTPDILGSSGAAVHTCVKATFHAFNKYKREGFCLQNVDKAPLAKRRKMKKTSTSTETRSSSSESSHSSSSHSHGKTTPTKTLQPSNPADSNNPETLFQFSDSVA
measurementLabel: inhibition (%)
Record the value in %, omitting the unit from your answer.

Examples with answers:
Cc1cc(-c2ccccn2)cc(C)c1/C=C/c1cncc(-c2nn[nH]n2)c1; 3.34
FC(F)(F)c1ccc(-c2nn3ncccc3c2-c2ccnc(Nc3ccc4c(c3)OCCO4)n2)cc1; 3.36
Cc1ccc2c(c1)/C(=N/Nc1ccc(S(N)(=O)=O)cc1)C(=O)N2; 0.95
CN(C)CCCn1c(-c2nonc2N)nc2cnccc21; 8.29
Nc1nccc(-c2c(-c3ccc(F)cc3)nn3cc(C(F)(F)F)ccc23)n1; -0.99

Determine from records and report inhibition for `COc1cccc(-n2ncc3c(N/N=C/c4ccc(C)cc4)ncnc32)c1`
-3.87

Determine from records and report inhibition for `OCc1ccc(-c2nc(-c3ccccn3)c(-c3ccc4c(c3)OCO4)[nH]2)cc1`
4.12

Determine from records and report inhibition for `NS(=O)(=O)c1cccc(-c2cc3ccncc3cc2OCc2ccccc2)c1`
6.93

Determine from records and report inhibition for `NS(=O)(=O)c1ccc(N/N=C2\C(=O)Nc3ccc(Cl)cc32)cc1`
-2.92

Determine from records and report inhibition for `COc1cc(Nc2nccc(-c3cnn4ncccc34)n2)cc(OC)c1`
1.61

Determine from records and report inhibition for `C[C@@H](Oc1cc(-n2cnc3ccc(OCC4CCN(C)CC4)cc32)sc1C(N)=O)c1ccccc1C(F)(F)F`
-2.08

* * *

Quick list: inhibition per entry.
target: MAP kinase-activated protein kinase 3 (Homo sapiens); details: at 0.1 µM
Description: GSK_PKIS: MAPKAPK3 mean inhibition at 0.1 uM [Nanosyn]
Just so you know, I need the unit written after the number.

OCc1ccc(-c2nc(-c3ccccn3)c(-c3ccc4c(c3)OCO4)[nH]2)cc1; 3.91%

Determine from records and report inhibition for `CC(C)c1ccc(Nc2nccc(-c3cnn4ncccc34)n2)cc1`
3.55%

Determine from records and report inhibition for `Cc1ccc2c(-c3ccnc(Nc4cccc(C(F)(F)F)c4)n3)c(-c3ccccc3)nn2n1`
15.6%

Determine from records and report inhibition for `C[C@@H](Oc1cc(-n2cnc3ccc(OCC4CCN(C)CC4)cc32)sc1C(N)=O)c1ccccc1C(F)(F)F`
-0.96%

Determine from records and report inhibition for `COc1ccc2ncnc(Nc3ccc(OCc4ccccc4)cc3)c2c1`
2.72%

* * *

target: Serine/threonine-protein kinase D2 (Homo sapiens); details: at 1 µM;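 further: mean value of PRKD2 inhibition, from the GSK PKIS screening panel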
Quick list: inhibition per entry.
Record the value in %, omitting the unit from your answer.

Examples with answers:
Cc1ccc2c(-c3ccnc(Nc4ccc5c(c4)OCCO5)n3)c(-c3ccc(C(F)(F)F)cc3)nn2n1; 2.37
CCS(=O)(=O)c1ccc(OC)c(Nc2ncc(-c3cccc(OC)c3)o2)c1; 3.71
NC(=O)c1cccc(Nc2nccc(Nc3cccc(F)c3)n2)c1; 0.2
NS(=O)(=O)c1ccc(Nc2cc(-c3cccc(O)c3)n[nH]2)cc1; 7.41
Cc1ccc2c(-c3ccnc(Nc4cccc(C(F)(F)F)c4)n3)c(-c3ccccc3)nn2n1; 56.8

Determine from records and report inhibition for `Cc1cc(O)cc(C)c1/C=C/c1cncc(C(=O)N(C)C)c1`
2.05

Determine from records and report inhibition for `NS(=O)(=O)c1cccc(-c2cc3ccncc3cc2OCc2ccccc2)c1`
5.47

Determine from records and report inhibition for `CN(C)CCCn1c(-c2nonc2N)nc2cnccc21`
5.95

Determine from records and report inhibition for `Nc1nccc(-c2c(-c3ccc(F)cc3)ncn2CCCN2CCOCC2)n1`
4.5

Determine from records and report inhibition for `ON=C1CCc2cc(-c3nc(C4CCNCC4)[nH]c3-c3ccncc3)ccc21`
9.97

Determine from records and report inhibition for `N#Cc1c(NC(=O)c2ccccc2F)sc2c1CCCC2`
1.58

Determine from records and report inhibition for `Nc1ccc(C#Cc2cncnc2Nc2ccc(OCc3cccc(F)c3)c(Cl)c2)cc1`
2.21

Determine from records and report inhibition for `N#Cc1cccc(Nc2nccc(-c3cnn4ncccc34)n2)c1`
46.8

Determine from records and report inhibition for `NS(=O)(=O)c1ccc(NC=C2C(=O)Nc3ccc4ncsc4c32)cc1`
79

Determine from records and report inhibition for `COc1cc2ncnc(Nc3ccc(C)c(O)c3)c2cc1OC`
10.5

Determine from records and report inhibition for `COc1cccc(-n2nc(C)c3c(N/N=C(\C)c4ccncc4)ncnc32)c1`
-1.17
